I'd appreciate it if you could supply Fold change in IC50 values for the items below.
Test system: HIV with mutations in the HIV protease sequence
Assay: Phenotypic fold resistance to protease inhibitors, protease mutations 84A/84L/84C/54M/54L/54V in a background (Examples 8-13)
Format: cell-based, HIV-1
Conditions: Table 13, V052974, genotype 10I + 54L + 90M
I only need the number, in fold, no unit after it.

In plain terms, CC(C)c1nc(CN(C)C(=O)N[C@H](C(=O)N[C@@H](Cc2ccccc2)C[C@H](O)[C@H](Cc2ccccc2)NC(=O)OCc2cncs2)C(C)C)cs1 [Ritonavir, ritonavir] has a documented Fold change in IC50 of 3.6

For this compound ( CC(C)(C)NC(=O)[C@@H]1C[C@@H]2CCCC[C@@H]2CN1C[C@@H](O)[C@H](Cc1ccccc1)NC(=O)[C@H](CC(N)=O)NC(=O)c1ccc2ccccc2n1 [Saquinavir, saquinavir] ), measured Fold change in IC50 is 1.1

For this compound ( CC(C)(C)NC(=O)[C@@H]1CN(Cc2cccnc2)CCN1C[C@@H](O)C[C@@H](Cc1ccccc1)C(=O)N[C@H]1c2ccccc2C[C@H]1O [Indinavir, indinavir] ), measured Fold change in IC50 is 1.7

Fold change in IC50 for Cc1c(O)cccc1C(=O)N[C@@H](CSc1ccccc1)[C@H](O)CN1C[C@H]2CCCC[C@H]2C[C@H]1C(=O)NC(C)(C)C [Nelfinavir, nelfinavir] is 2.6

Form: compound = CC(C)CN(C[C@@H](O)[C@H](Cc1ccccc1)NC(=O)O[C@H]1CCOC1)S(=O)(=O)c1ccc(N)cc1 [Amprenavir, amprenavir] ; Fold change in IC50 = 1.2

---

Test system: HIV with mutations in the HIV protease sequence
Test: Phenotypic fold resistance to protease inhibitors, protease mutations 84A/84L/84C/54M/54L/54V in a background (Examples 8-13)
Format: cell-based, HIV-1
Details: Virco ID V052947; genotype 10I + 77I + 90M; vs mean IC50 of wild type laboratory HIV strain
Rule: Fold change in IC50 under 4 fold gives not met, otherwise met.

*Q* Could you please find out whether CC(C)(C)NC(=O)[C@@H]1CN(Cc2cccnc2)CCN1C[C@@H](O)C[C@@H](Cc1ccccc1)C(=O)N[C@H]1c2ccccc2C[C@H]1O [Indinavir, indinavir] has Fold change in IC50 that meets 4 fold or exceeds it?
*A* not met

*Q* Please tell me: is the compound CC(C)c1nc(CN(C)C(=O)N[C@H](C(=O)N[C@@H](Cc2ccccc2)C[C@H](O)[C@H](Cc2ccccc2)NC(=O)OCc2cncs2)C(C)C)cs1 [Ritonavir, ritonavir] at or over 4 fold in terms of Fold change in IC50?
*A* met

*Q* # bool: Fold change in IC50 of CC(C)CN(C[C@@H](O)[C@H](Cc1ccccc1)NC(=O)O[C@H]1CCOC1)S(=O)(=O)c1ccc(N)cc1 [Amprenavir, amprenavir] >= 4 fold
*A* not met

*Q* Does the reported Fold change in IC50 for Cc1c(O)cccc1C(=O)N[C@@H](CSc1ccccc1)[C@H](O)CN1C[C@H]2CCCC[C@H]2C[C@H]1C(=O)NC(C)(C)C [Nelfinavir, nelfinavir] fall at or above the 4 fold mark?
*A* met

---

Tested on: HIV with mutations in the HIV protease sequence
Test: Phenotypic fold resistance to protease inhibitors, protease mutations 84A/84L/84C/54M/54L/54V in a background (Examples 8-13)
Type: cell-based, HIV-1
Settings: Virco ID V052948; genotype 10I + 71V + 90M; vs mean IC50 of wild type laboratory HIV strain
# binarize Fold change in IC50: threshold 5 fold inclusive, high side MET, low side NOT MET

*Q* Does the reported Fold change in IC50 for Cc1c(O)cccc1C(=O)N[C@@H](CSc1ccccc1)[C@H](O)CN1C[C@H]2CCCC[C@H]2C[C@H]1C(=O)NC(C)(C)C fall at or above the 5 fold mark?
*A* MET

*Q* Can CC(C)CN(C[C@@H](O)[C@H](Cc1ccccc1)NC(=O)O[C@H]1CCOC1)S(=O)(=O)c1ccc(N)cc1 be said to have Fold change in IC50 at or above 5 fold?
*A* NOT MET

*Q* Decide: Fold change in IC50 of CC(C)(C)NC(=O)[C@@H]1C[C@@H]2CCCC[C@@H]2CN1C[C@@H](O)[C@H](Cc1ccccc1)NC(=O)[C@H](CC(N)=O)NC(=O)c1ccc2ccccc2n1 >= 5 fold?
*A* NOT MET

*Q* Reported Fold change in IC50 at or above 5 fold? CC(C)(C)NC(=O)[C@@H]1CN(Cc2cccnc2)CCN1C[C@@H](O)C[C@@H](Cc1ccccc1)C(=O)N[C@H]1c2ccccc2C[C@H]1O
*A* MET

*Q* Quick check: does CC(C)c1nc(CN(C)C(=O)N[C@H](C(=O)N[C@@H](Cc2ccccc2)C[C@H](O)[C@H](Cc2ccccc2)NC(=O)OCc2cncs2)C(C)C)cs1 have Fold change in IC50 greater than or equal to 5 fold?
*A* MET

---

System: HIV with mutations in the HIV protease sequence
Experiment: Phenotypic fold resistance to protease inhibitors, protease mutations 84A/84L/84C/54M/54L/54V in a background (Examples 8-13)
Type: cell-based, HIV-1
Conditions: Table 13, V052975, genotype 10I + 54L + 71V + 90M
Excerpt: As is the case with the genotyping assays, the recombinant virus assay starts with the amplification of viral target sequences by means of PCR. The amplicons are incorporated into a proviral laboratory clone with sequences homologous to those present in the amplicon deleted. This generates a stock of chimeric viruses. […] In the latter case, resistance is expressed as “fold-resistance” compared to a wild-type susceptible HIV-1 strain. […]
Give Satisfied when the value for Fold change in IC50 is at least 20 fold. Give Not satisfied when it is less.

*Q* Hello, I need to know if CC(C)(C)NC(=O)[C@@H]1CN(Cc2cccnc2)CCN1C[C@@H](O)C[C@@H](Cc1ccccc1)C(=O)N[C@H]1c2ccccc2C[C@H]1O has measured Fold change in IC50 not below 20 fold. Thanks!
*A* Not satisfied

*Q* Answer whether Fold change in IC50 of CC(C)CN(C[C@@H](O)[C@H](Cc1ccccc1)NC(=O)O[C@H]1CCOC1)S(=O)(=O)c1ccc(N)cc1 is greater than or equal to 20 fold.
*A* Not satisfied

*Q* Quick check, Fold change in IC50 >= 20 fold? CC(C)(C)NC(=O)[C@@H]1C[C@@H]2CCCC[C@@H]2CN1C[C@@H](O)[C@H](Cc1ccccc1)NC(=O)[C@H](CC(N)=O)NC(=O)c1ccc2ccccc2n1
*A* Satisfied

*Q* Is reported Fold change in IC50 greater than or equal to 20 fold here: Cc1c(O)cccc1C(=O)N[C@@H](CSc1ccccc1)[C@H](O)CN1C[C@H]2CCCC[C@H]2C[C@H]1C(=O)NC(C)(C)C
*A* Satisfied

*Q* Kindly determine if Fold change in IC50 recorded for CC(C)c1nc(CN(C)C(=O)N[C@H](C(=O)N[C@@H](Cc2ccccc2)C[C@H](O)[C@H](Cc2ccccc2)NC(=O)OCc2cncs2)C(C)C)cs1 is above or exactly 20 fold.
*A* Satisfied

---

I'd appreciate it if you could supply mean fold increase in resistance values for the items below.
Test system: HIV with mutations in the HIV protease sequence
Assay: Phenotypic fold resistance to protease inhibitors, protease mutations 84A/84L/84C/54M/54L/54V in a background (Examples 8-13)
Type: cell-based, HIV-1
Conditions: Table 11 #1, protease genotype WT

Kindly note the recorded mean fold increase in resistance for Cc1c(O)cccc1C(=O)N[C@@H](CSc1ccccc1)[C@H](O)CN1C[C@H]2CCCC[C@H]2C[C@H]1C(=O)NC(C)(C)C , which is 0.7 fold

Short answer for CC(C)(C)NC(=O)[C@@H]1C[C@@H]2CCCC[C@@H]2CN1C[C@@H](O)[C@H](Cc1ccccc1)NC(=O)[C@H](CC(N)=O)NC(=O)c1ccc2ccccc2n1 : mean fold increase in resistance was 0.9 fold

Quick note, mean fold increase in resistance for CC(C)CN(C[C@@H](O)[C@H](Cc1ccccc1)NC(=O)O[C@H]1CCOC1)S(=O)(=O)c1ccc(N)cc1 landed at 1.0 fold

mean fold increase in resistance in this record for CC(C)(C)NC(=O)[C@@H]1CN(Cc2cccnc2)CCN1C[C@@H](O)C[C@@H](Cc1ccccc1)C(=O)N[C@H]1c2ccccc2C[C@H]1O : 0.9 fold

For reference, reported mean fold increase in resistance for CC(C)c1nc(CN(C)C(=O)N[C@H](C(=O)N[C@@H](Cc2ccccc2)C[C@H](O)[C@H](Cc2ccccc2)NC(=O)OCc2cncs2)C(C)C)cs1 stands at 0.6 fold

---

Give Fold change in IC50 for every item shown.
System: HIV with mutations in the HIV protease sequence
Experiment: Phenotypic fold resistance to protease inhibitors, protease mutations 84A/84L/84C/54M/54L/54V in a background (Examples 8-13)
Format: cell-based, HIV-1
Details: Table 12, V052951, genotype 33F + 77I
Record the value in fold, omitting the unit from your answer.

The reported Fold change in IC50 of the compound Cc1c(O)cccc1C(=O)N[C@@H](CSc1ccccc1)[C@H](O)CN1C[C@H]2CCCC[C@H]2C[C@H]1C(=O)NC(C)(C)C [Nelfinavir, nelfinavir] was 5.2

So for CC(C)(C)NC(=O)[C@@H]1CN(Cc2cccnc2)CCN1C[C@@H](O)C[C@@H](Cc1ccccc1)C(=O)N[C@H]1c2ccccc2C[C@H]1O [Indinavir, indinavir] , the logged Fold change in IC50 turned out to be 0.4

Reported Fold change in IC50 ( CC(C)CN(C[C@@H](O)[C@H](Cc1ccccc1)NC(=O)O[C@H]1CCOC1)S(=O)(=O)c1ccc(N)cc1 [Amprenavir, amprenavir] ) = 0.3

Fold change in IC50 recorded for this compound, CC(C)c1nc(CN(C)C(=O)N[C@H](C(=O)N[C@@H](Cc2ccccc2)C[C@H](O)[C@H](Cc2ccccc2)NC(=O)OCc2cncs2)C(C)C)cs1 [Ritonavir, ritonavir] , is 0.3

So for CC(C)(C)NC(=O)[C@@H]1C[C@@H]2CCCC[C@@H]2CN1C[C@@H](O)[C@H](Cc1ccccc1)NC(=O)[C@H](CC(N)=O)NC(=O)c1ccc2ccccc2n1 [Saquinavir, saquinavir] , the logged Fold change in IC50 turned out to be 0.4

Reference source: patent US8574831B2
